Listing of recorded fold change of affinity by entry.
Biological target: Human CD3eg linker (human)
Sequence (chain, as listed by the source limits assumed): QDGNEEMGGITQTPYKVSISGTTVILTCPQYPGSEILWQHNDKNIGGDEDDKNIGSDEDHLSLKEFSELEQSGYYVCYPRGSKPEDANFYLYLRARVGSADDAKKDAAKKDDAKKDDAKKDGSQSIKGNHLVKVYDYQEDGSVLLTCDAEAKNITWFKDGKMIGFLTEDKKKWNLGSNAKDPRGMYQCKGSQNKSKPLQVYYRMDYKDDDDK
Assay: SPR; fold vs parent H183/L072
Record the value in fold, omitting the unit from your answer.

H183/L072 VL L27bW (antibody, name in Kabat numbering, V domains shown) VH: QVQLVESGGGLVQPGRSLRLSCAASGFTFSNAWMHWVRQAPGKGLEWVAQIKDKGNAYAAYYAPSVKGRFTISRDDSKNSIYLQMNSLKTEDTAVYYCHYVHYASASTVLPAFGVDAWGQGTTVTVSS VL: DIVMTQSPLSLPVTPGEPASISCQASQEWVHMNRNTYLHWYQQKPGQAPRLLIYKVSNRFPGVPDRFSGSGSGTDFTLKISRVEAEDVGVYYCAQGTSVPFTFGQGTKLEIK = 0
H183/L072 VL Q90I (antibody, name in Kabat numbering, V domains shown) VH: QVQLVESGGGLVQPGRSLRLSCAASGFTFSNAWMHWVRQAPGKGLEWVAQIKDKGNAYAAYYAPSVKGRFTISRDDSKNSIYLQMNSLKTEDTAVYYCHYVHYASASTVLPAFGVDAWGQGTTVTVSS VL: DIVMTQSPLSLPVTPGEPASISCQASQELVHMNRNTYLHWYQQKPGQAPRLLIYKVSNRFPGVPDRFSGSGSGTDFTLKISRVEAEDVGVYYCAIGTSVPFTFGQGTKLEIK = 0

Shifting focus to the binder that follows.
-- ask Record request: fold change of affinity value, item H183/L072 VL A25W (antibody, name in Kabat numbering, V domains shown) VH: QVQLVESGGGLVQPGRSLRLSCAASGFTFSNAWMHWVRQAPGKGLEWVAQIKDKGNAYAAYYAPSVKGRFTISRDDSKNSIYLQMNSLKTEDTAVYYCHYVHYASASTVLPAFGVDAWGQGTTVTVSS VL: DIVMTQSPLSLPVTPGEPASISCQWSQELVHMNRNTYLHWYQQKPGQAPRLLIYKVSNRFPGVPDRFSGSGSGTDFTLKISRVEAEDVGVYYCAQGTSVPFTFGQGTKLEIK
-- reply 0
